Test system: 777334-354-R2-J4-PDC tumor spheroids with HUVEC/MSC, viability;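 note: spheroids exposed to compounds for 7 days before readout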
Experiment: Anticancer human tumor 777334-354-R2-J4-PDC patient-derived pancreatic adenocarcinoma cell line growth inhibition [GQUAD]
Conditions: second compound 1 µM; first compound 10 µM; active compounds read low
From the text: DNA G-quadruplex Stabilizer Agents in Combinations in Complex Spheroids A high-throughput screen of multi-cell type tumor spheroids was designed to identify active combinations of DNA G-quadruplex stabilizer agents and targeted small molecules. […] Compounds. […] If the clinical Cmax for an agent had not been determined, the highest concentration tested was 10 microM. […]
Measured parameter: viability, T/C (%)
# number only, unit % dropped from output

INSERT INTO measurements (compound, measured_parameter, measured_value) VALUES
  ('CC(C)(O)C1CCC(Nc2ccc3ncc(-c4cccc(C(F)(F)F)c4)n3n2)CC1 (stereo not given) + Cc1[nH]c2ccc(F)cc2c1-c1nc2c3cccnc3c3ncccc3c2[nH]1', 'viability, T/C', 24.6),
  ('CC(C)n1c(=O)n(C)c2cnc3cc(F)c(-c4ccc(OCCCN5CCCCC5)nc4)cc3c21 + CN(C)c1ccc(Nc2c3ccc(NC(=O)CCN4CCCC4)cc3nc3cc(NC(=O)CCN4CCCC4)ccc23)cc1', 'viability, T/C', 75.2),
  ('COc1ncnc(C2CC2)c1-c1ncc2cnn(Cc3ccc(-c4nc(C(F)(F)F)cn4C(C)C)cc3)c2n1 + Cc1[nH]c2ccc(F)cc2c1-c1nc2c3cccnc3c3ncccc3c2[nH]1', 'viability, T/C', 79.3),
  ('CC(=O)O[C@H]1C(=O)[C@@]2(C)[C@H]([C@H](OC(=O)c3ccccc3)[C@]3(O)C[C@H](OC(=O)[C@H](O)[C@@H](NC(=O)c4ccccc4)c4ccccc4)C(C)=C1C3(C)C)[C@]1(OC(C)=O)CO[C@@H]1C[C@@H]2O + Cc1cnc(CNC(=O)c2c(=O)c3ccc(N4CCCN(C)CC4)nc3n3c2sc2ccccc23)cn1', 'viability, T/C', 70.1),
  ('O=C(NO)c1cnc(N2CCN(S(=O)(=O)c3ccc4ccccc4c3)CC2)nc1 + Cc1cnc(CNC(=O)c2c(=O)c3ccc(N4CCCN(C)CC4)nc3n3c2sc2ccccc23)cn1', 'viability, T/C', 0.13);

Value of measured viability, T/C for the entry O=C(c1cc(Cc2n[nH]c(=O)c3ccccc23)ccc1F)N1CCN(C(=O)C2CC2)CC1 + CN(C)c1ccc(Nc2c3ccc(NC(=O)CCN4CCCC4)cc3nc3cc(NC(=O)CCN4CCCC4)ccc23)cc1 : 65.4

Value of measured viability, T/C for the entry C=CCn1c(=O)c2cnc(Nc3ccc(N4CCN(C)CC4)cc3)nc2n1-c1cccc(C(C)(C)O)n1 + Cc1[nH]c2ccc(F)cc2c1-c1nc2c3cccnc3c3ncccc3c2[nH]1 : 28.1

Value of measured viability, T/C for the entry O=c1[nH]cc(F)c(=O)[nH]1 + CN(C)c1ccc(Nc2c3ccc(NC(=O)CCN4CCCC4)cc3nc3cc(NC(=O)CCN4CCCC4)ccc23)cc1 : 55

Value of measured viability, T/C for the entry COc1ccc([C@@H](O)c2cc(-c3ncnc4cc(N5CCOCC5)ccc34)c(F)cc2Cl)nn1 + Cc1[nH]c2ccc(F)cc2c1-c1nc2c3cccnc3c3ncccc3c2[nH]1 : 22.2

Value of measured viability, T/C for the entry CCCS(=O)(=O)Nc1ccc(F)c(C(=O)c2c[nH]c3ncc(-c4ccc(Cl)cc4)cc23)c1F + Cc1[nH]c2ccc(F)cc2c1-c1nc2c3cccnc3c3ncccc3c2[nH]1 : 28.5
